# test.name: Stability of the compound in stimulated gastric fluid pH 1.2 at 5 uM incubated for 30 mins by HPLC-MS analysis
# Assay type: physicochemical
# test.parameters: simulated gastric fluid, read-out: Stability
Provide the reported remaining at 0.5 h, 5 µM of each item.
Give bare numbers, in %.

{"compound": "CC(=O)N[C@H](CC(N)=O)C(=O)N[C@@H](C)C(=O)N[C@@H](CC(C)C)C(=O)N[C@@H](CCC(N)=O)C(=O)N[C@H](C(=O)N[C@H](CC(C)C)C(=O)NCC(=O)N[C@@H](Cc1ccccc1)C(=O)N[C@H](CCC(N)=O)C(=O)N[C@@H](CC(C)C)C(=O)N[C@H](C(N)=O)[C@@H](C)O)[C@@H](C)O", "measurement.units": "%", "meas.value": 96.7}

Shifting focus to the molecule that follows.
CC(=O)N[C@H](CC(C)C)C(=O)N[C@@H](C)C(=O)N[C@@H](CC(C)C)C(=O)N[C@@H](CCC(N)=O)C(=O)N[C@H](C(=O)N[C@H](CC(C)C)C(=O)NCC(=O)N[C@@H](Cc1ccccc1)C(=O)N[C@H](CCC(N)=O)C(=O)N[C@@H](CC(C)C)C(=O)N[C@H](C(N)=O)[C@@H](C)O)[C@@H](C)O has a reported remaining at 0.5 h, 5 µM of 94.2

---

# test.name: Cmax in BALB/c mouse at 10 mg/kg, po measured upto 24 hrs by LC-MS/MS analysis
# Assay type: ADME, organism-based
# test.parameters: in vivo
readout.kind: Cmax (ng/mL)
Answers are plain numbers, in ng/mL.

CC(=O)N[C@H](CC(N)=O)C(=O)N[C@@H](C)C(=O)N[C@@H](CC(C)C)C(=O)N[C@@H](CCC(N)=O)C(=O)N[C@H](C(=O)N[C@H](CC(C)C)C(=O)NCC(=O)N[C@@H](Cc1ccccc1)C(=O)N[C@H](CCC(N)=O)C(=O)N[C@@H](CC(C)C)C(=O)N[C@H](C(N)=O)[C@@H](C)O)[C@@H](C)O has a reported Cmax of 3200
